- Tested on: GT4a wild-type chimeric replicon (4a NS5B in GT1b backbone)
- protocol.text: microbe, parasite or virus in culture
- Format: cell-based, HCV
- condition.context: Hepatitis C virus, 72 h, read-out: EC50 WT
pEC50: −log10 of the molar value.
Listed next: entries and their corresponding pEC50.

compound: COC(=O)N[C@H](C(=O)N1CC2(CC2)C[C@H]1c1ncc(-c2ccc3c(c2)C(F)(F)c2cc(-c4ccc5nc([C@@H]6[C@H]7CC[C@H](C7)N6C(=O)[C@@H](NC(=O)OC)C(C)C)[nH]c5c4)ccc2-3)[nH]1)C(C)C
pEC50: 9.30
//
compound: CC(C)OC(=O)[C@H](C)N[P@](=O)(OC[C@H]1O[C@@H](n2ccc(=O)[nH]c2=O)[C@](C)(F)[C@@H]1O)Oc1ccccc1
pEC50: 7.45
//
compound: NC(=O)c1ncn([C@@H]2O[C@H](CO)[C@@H](O)[C@H]2O)n1 [Ribavirin, reference compound]
pEC50: 8.21

###

- System: Huh-7 cells carrying a HCV genotype 1a replicon
- protocol.text: HCV genotype 1a replicon assay, CC50 by calcein AM (Biological Example 3)
- Assay type: cell-based
- condition.context: genotype 1a replicon cells, 3 days, read-out: CC50
Readings of CC50 for the listed compounds

compound: NC(=O)c1ncn([C@@H]2O[C@H](CO)[C@@H](O)[C@H]2O)n1 [Ribavirin, reference compound]
CC50: > 88.8 µM
--
compound: COC(=O)N[C@H](C(=O)N1CC2(CC2)C[C@H]1c1ncc(-c2ccc3c(c2)C(F)(F)c2cc(-c4ccc5nc([C@@H]6[C@H]7CC[C@H](C7)N6C(=O)[C@@H](NC(=O)OC)C(C)C)[nH]c5c4)ccc2-3)[nH]1)C(C)C
CC50: > 44.4 µM
--
compound: Fc1ccccc1-c1nc2ccn(Cc3ccc(-c4ccc(C(F)(F)F)cc4C(F)(F)F)nn3)cc-2n1
CC50: > 44.4 µM
--
compound: COc1ccc2c(O[C@@H]3C[C@H]4C(=O)N[C@]5(P(=O)(O)Cc6c(F)cccc6F)C[C@H]5CCCCCCC[C@H](NC(=O)OC5CCCC5)C(=O)N4C3)cc(-c3csc(NC(C)C)n3)nc2c1Cl
CC50: > 22.2 µM
--
compound: CC1=CC[C@H](C(=O)N(c2cc(C#CC(C)(C)C)sc2C(=O)O)[C@H]2CC[C@](O)(CO[C@H]3CCOC3)CC2)CC1
CC50: > 44.4 µM

###

- System: HCV genotype 1a replicon
- protocol.text: Antiviral combination studies with Compound 4, MacSynergy II
- condition.context: in combination with Compound 4, mean ± standard deviation
recorded.metric: Antagonism Volume (nM^2%)

compound: CC[C@@H]1C[C@]1(NC(=O)[C@@H]1C[C@@H](Oc2cc(-c3csc(NC(C)C)n3)nc3c(Cl)c(OCCN4CCOCC4)ccc23)CN1C(=O)[C@@H](NC(=O)O[C@@H]1C[C@@H]2C[C@@H]2C1)C(C)(C)C)C(=O)O [Compound 3]
recorded.metric: Antagonism Volume
units.text: nM^2%
data.value: −3
//
compound: COC(=O)N[C@H](C(=O)N1CC2(CC2)C[C@H]1c1ncc(-c2ccc3c(c2)C(F)(F)c2cc(-c4ccc5nc([C@@H]6[C@H]7CC[C@H](C7)N6C(=O)[C@@H](NC(=O)OC)C(C)C)[nH]c5c4)ccc2-3)[nH]1)C(C)C [Compound 6]
recorded.metric: Antagonism Volume
units.text: nM^2%
data.value: −7
//
compound: COc1ccc2c(O[C@@H]3C[C@H]4C(=O)N[C@]5(P(=O)(O)Cc6c(F)cccc6F)C[C@H]5CCCCCCC[C@H](NC(=O)OC5CCCC5)C(=O)N4C3)cc(-c3csc(NC(C)C)n3)nc2c1Cl [Compound 2]
recorded.metric: Antagonism Volume
units.text: nM^2%
data.value: −2
//
compound: CC1=CC[C@H](C(=O)N(c2cc(C#CC(C)(C)C)sc2C(=O)O)[C@H]2CC[C@](O)(CO[C@H]3CCOC3)CC2)CC1 [Compound 5]
recorded.metric: Antagonism Volume
units.text: nM^2%
data.value: −1
//
compound: Fc1ccccc1-c1nc2ccn(Cc3ccc(-c4ccc(C(F)(F)F)cc4C(F)(F)F)nn3)cc-2n1 [Compound 1]
recorded.metric: Antagonism Volume
units.text: nM^2%
data.value: −1

###

- System: HCV genotype 1a replicon
- protocol.text: HCV genotype 1a replicon assay, EC50 (Biological Example 3)
- Format: cell-based
- condition.context: Hepatitis C virus, 72 h, 3 days, average ± standard deviation, read-out: EC50
pEC50: −log10 of the molar value.
Rule: pEC50 of 8 or more gives y; anything lower gives n.

compound: COc1ccc2c(O[C@@H]3C[C@H]4C(=O)N[C@]5(P(=O)(O)Cc6c(F)cccc6F)C[C@H]5CCCCCCC[C@H](NC(=O)OC5CCCC5)C(=O)N4C3)cc(-c3csc(NC(C)C)n3)nc2c1Cl
category: n
--
compound: COC(=O)N[C@H](C(=O)N1CC2(CC2)C[C@H]1c1ncc(-c2ccc3c(c2)C(F)(F)c2cc(-c4ccc5nc([C@@H]6[C@H]7CC[C@H](C7)N6C(=O)[C@@H](NC(=O)OC)C(C)C)[nH]c5c4)ccc2-3)[nH]1)C(C)C
category: y
--
compound: NC(=O)c1ncn([C@@H]2O[C@H](CO)[C@@H](O)[C@H]2O)n1 [Ribavirin, reference compound]
category: n
--
compound: CC(C)OC(=O)[C@H](C)N[P@](=O)(OC[C@H]1O[C@@](C#N)(c2ccc3c(N)ncnn23)[C@](C)(O)[C@@H]1OC(=O)C(C)C)Oc1ccccc1
category: n
--
compound: Fc1ccccc1-c1nc2ccn(Cc3ccc(-c4ccc(C(F)(F)F)cc4C(F)(F)F)nn3)cc-2n1
category: n
--
compound: CC[C@@H]1C[C@]1(NC(=O)[C@@H]1C[C@@H](Oc2cc(-c3csc(NC(C)C)n3)nc3c(Cl)c(OCCN4CCOCC4)ccc23)CN1C(=O)[C@@H](NC(=O)O[C@@H]1C[C@@H]2C[C@@H]2C1)C(C)(C)C)C(=O)O
category: n

###

- Tested on: HCV 1b replicon system (Huh-luc)
- protocol.text: Antiviral combination studies with Compound 6, MacSynergy II
- condition.context: in combination with Compound 6, mean ± standard deviation
Exam item: assign Condition met to entries whose Antagonism Volume is below -0.2 nM^2 and Condition not met to entries at or above -0.2 nM^2. Note that a value of exactly -0.2 nM^2 receives Condition not met.

compound: COc1ccc2c(O[C@@H]3C[C@H]4C(=O)N[C@]5(P(=O)(O)Cc6c(F)cccc6F)C[C@H]5CCCCCCC[C@H](NC(=O)OC5CCCC5)C(=O)N4C3)cc(-c3csc(NC(C)C)n3)nc2c1Cl
category: Condition met

compound: NC(=O)c1ncn([C@@H]2O[C@H](CO)[C@@H](O)[C@H]2O)n1 [Ribavirin, reference compound]
category: Condition met

compound: Fc1ccccc1-c1nc2ccn(Cc3ccc(-c4ccc(C(F)(F)F)cc4C(F)(F)F)nn3)cc-2n1
category: Condition met

compound: CC[C@@H]1C[C@]1(NC(=O)[C@@H]1C[C@@H](Oc2cc(-c3csc(NC(C)C)n3)nc3c(Cl)c(OCCN4CCOCC4)ccc23)CN1C(=O)[C@@H](NC(=O)O[C@@H]1C[C@@H]2C[C@@H]2C1)C(C)(C)C)C(=O)O
category: Condition not met

###

- protocol.text: HCV genotype 1a replicon assay, CC50 by calcein AM (Biological Example 3)
- Type: cell-based
- condition.context: human, Huh-7 cells carrying a HCV genotype 1a replicon, genotype 1a replicon cells
recorded.metric: CC50 at 3 days

substance.smiles: CC[C@@H]1C[C@]1(NC(=O)[C@@H]1C[C@@H](Oc2cc(-c3csc(NC(C)C)n3)nc3c(Cl)c(OCCN4CCOCC4)ccc23)CN1C(=O)[C@@H](NC(=O)O[C@@H]1C[C@@H]2C[C@@H]2C1)C(C)(C)C)C(=O)O
data.value: > 22.2 µM

###

Measured Synergy Volume values are reported for all entries that follow.
- Test system: 1b Huh-luc replicon cells
- protocol.text: Antiviral combination studies with Compound 5, MacSynergy II
- Type: cell-based, HCV
- condition.context: in combination with Compound 5, mean ± standard deviation
recorded.metric: Synergy Volume (nM^2)

compound: Fc1ccccc1-c1nc2ccn(Cc3ccc(-c4ccc(C(F)(F)F)cc4C(F)(F)F)nn3)cc-2n1
recorded.metric: Synergy Volume
units.text: nM^2
data.value: 70
--
compound: NC(=O)c1ncn([C@@H]2O[C@H](CO)[C@@H](O)[C@H]2O)n1 [Ribavirin, reference compound]
recorded.metric: Synergy Volume
units.text: nM^2
data.value: 12
--
compound: CC[C@@H]1C[C@]1(NC(=O)[C@@H]1C[C@@H](Oc2cc(-c3csc(NC(C)C)n3)nc3c(Cl)c(OCCN4CCOCC4)ccc23)CN1C(=O)[C@@H](NC(=O)O[C@@H]1C[C@@H]2C[C@@H]2C1)C(C)(C)C)C(=O)O
recorded.metric: Synergy Volume
units.text: nM^2
data.value: 19
--
compound: COc1ccc2c(O[C@@H]3C[C@H]4C(=O)N[C@]5(P(=O)(O)Cc6c(F)cccc6F)C[C@H]5CCCCCCC[C@H](NC(=O)OC5CCCC5)C(=O)N4C3)cc(-c3csc(NC(C)C)n3)nc2c1Cl
recorded.metric: Synergy Volume
units.text: nM^2
data.value: 22
--
compound: COC(=O)N[C@H](C(=O)N1CC2(CC2)C[C@H]1c1ncc(-c2ccc3c(c2)C(F)(F)c2cc(-c4ccc5nc([C@@H]6[C@H]7CC[C@H](C7)N6C(=O)[C@@H](NC(=O)OC)C(C)C)[nH]c5c4)ccc2-3)[nH]1)C(C)C
recorded.metric: Synergy Volume
units.text: nM^2
data.value: 34
--
compound: CC(C)OC(=O)[C@H](C)N[P@](=O)(OC[C@H]1O[C@@](C#N)(c2ccc3c(N)ncnn23)[C@](C)(O)[C@@H]1OC(=O)C(C)C)Oc1ccccc1
recorded.metric: Synergy Volume
units.text: nM^2
data.value: 26
